ASSAY INFO: Plasma concentration after ip dosing
Type: in vivo, mice
CONDITION CONTEXT: female, athymic nude (Foxn1nu/Foxn1nu), mouse, 4 mg/kg/day
MEASURE NAME: concentration at 1 h (nM)
Give bare numbers, in nM.

The recorded concentration at 1 h for entry CCCCCCNC(=N)NC(=N)NCc1ccccc1 [HBB, N1-hexyl-N5-benzyl-biguanide] equals 530
